- target-system: SIRT1 (Homo sapiens)
- Sequence (Q96EB6 1-747): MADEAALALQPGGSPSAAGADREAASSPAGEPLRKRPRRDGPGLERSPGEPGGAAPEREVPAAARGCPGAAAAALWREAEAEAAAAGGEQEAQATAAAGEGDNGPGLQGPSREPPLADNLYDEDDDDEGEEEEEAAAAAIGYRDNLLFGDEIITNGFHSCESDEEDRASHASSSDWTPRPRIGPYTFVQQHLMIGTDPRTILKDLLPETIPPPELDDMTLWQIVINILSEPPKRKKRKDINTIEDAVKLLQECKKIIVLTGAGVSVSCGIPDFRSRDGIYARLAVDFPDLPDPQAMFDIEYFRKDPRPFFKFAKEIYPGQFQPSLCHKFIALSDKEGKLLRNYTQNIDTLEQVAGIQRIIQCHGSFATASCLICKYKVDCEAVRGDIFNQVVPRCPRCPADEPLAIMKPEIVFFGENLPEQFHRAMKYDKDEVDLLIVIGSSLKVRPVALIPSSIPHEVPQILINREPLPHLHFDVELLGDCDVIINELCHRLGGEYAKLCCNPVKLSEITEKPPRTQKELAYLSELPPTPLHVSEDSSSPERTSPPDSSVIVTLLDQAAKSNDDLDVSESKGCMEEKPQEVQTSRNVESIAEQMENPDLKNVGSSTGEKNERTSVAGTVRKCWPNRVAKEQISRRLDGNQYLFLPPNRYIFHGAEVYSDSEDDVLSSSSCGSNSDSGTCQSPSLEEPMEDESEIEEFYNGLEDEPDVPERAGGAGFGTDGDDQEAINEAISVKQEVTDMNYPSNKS
- procedure-details: SIRT1 deacetylation of Trp 5-mer peptide, OAADPr mass spec assay
- measurement-context: Trp SIRT1_IC50, Trp 5-mer peptide; class symbols
pIC50: −log10 of the molar value.
# key: entry, value: pIC50

| compound | pIC50 |
| --- | --- |
| Cc1c(C(N)=O)sc2c(N3CCC(CCNC(=O)OC(C)(C)C)CC3)ncnc12 [Compound 116] | > 6.00 |
| NC(=O)c1cc2ncnc(N3CCN(CCN4CCCC4)CC3)c2s1 [Compound 35, bis(2,2,2-trifluoroacetate)] | > 6.00 |
| CC(C1CCN(c2ncnc3cc(C(N)=O)sc23)CC1)N1CCCC1 (stereo not shown) [Compound 183] | > 6.00 |
| Cc1nc(N2CCC(CCO)CC2)c2sc(C(N)=O)cc2n1 [Compound 151] | 5.00 to 6.00 |

====

- target-system: SIRT1 (Homo sapiens, UniProt Q96EB6)
- procedure-details: SIRT1 deacetylation of Trp 5-mer peptide, OAADPr mass spec assay
- measurement-context: Trp SIRT1_IC50, Trp 5-mer peptide; class symbols
result-type: IC50

| compound | result-type | value-measured |
| --- | --- | --- |
| NC(=O)c1cc2ncnc(N3CCN(CCN4CCCC4)CC3)c2o1 | IC50 | 1000 to 10000 nM |
| Cc1c(C(N)=O)sc2c(N3CCC(CCN)CC3)ncnc12 | IC50 | > 10000 nM |
| NC(=O)c1cc2ncnc(Cl)c2s1 | IC50 | > 10000 nM |
| CNC(=O)CC1CCN(c2ncnc3cc(C(N)=O)sc23)CC1 | IC50 | 1000 to 10000 nM |
| CC(C)(C)C(=O)NCC1CCN(c2ncnc3cc(C(N)=O)sc23)CC1 | IC50 | 1000 to 10000 nM |
| NC(=O)c1cc2ncnc(N3CCCCC3)c2s1 | IC50 | > 10000 nM |
| NC(=O)c1cc2ncnc(N3CCC(CN4CCCC4)CC3)c2o1 | IC50 | 1000 to 10000 nM |
| Cc1nc(N2CCN(CCNS(C)(=O)=O)CC2)c2sc(C(N)=O)cc2n1 | IC50 | > 10000 nM |
| NC(=O)c1cc2ncnc(N3CCC(CN4CCCC4)CC3)c2s1 | IC50 | < 1000 nM |
| CNCC1CCN(c2ncnc3cc(C(N)=O)sc23)CC1 | IC50 | > 10000 nM |
| Cc1nc(N2CCN(CCNC(=O)C(C)(C)C)CC2)c2sc(C(N)=O)cc2n1 | IC50 | 1000 to 10000 nM |
| CCNC(=O)c1ccc(C(=O)NCCN2CCN(c3ncnc4cc(C(N)=O)sc34)CC2)s1 [Compound 11d] | IC50 | < 1000 nM |
| CCNC(=O)c1cccc(C(=O)NCCN2CCN(c3ncnc4ccsc34)CC2)c1 | IC50 | > 10000 nM |
| Cc1c(C(N)=O)sc2c(N3CCC(CCNC(=O)C(C)(C)C)CC3)ncnc12 | IC50 | < 1000 nM |
| COCCN1CCN(c2ncnc3cc(C(N)=O)sc23)CC1 | IC50 | 1000 to 10000 nM |
| CC(C)(C)C(=O)NCCN1CCN(c2ncnc3cc(C(N)=O)oc23)CC1 | IC50 | < 1000 nM |
| NC(=O)c1cc2ccnc(N3CCC(CN4CCCC4)CC3)c2s1 | IC50 | > 10000 nM |
| CC(C)(C)OC(=O)NCCCC1CCN(c2ncnc3cc(C(N)=O)sc23)CC1 | IC50 | < 1000 nM |
| COC(=O)c1ccc(C(=O)NCCC2CCN(c3ncnc4cc(C(N)=O)sc34)CC2)s1 | IC50 | < 1000 nM |
| NC(=O)c1cc2ncnc(N3CCC(CCNC(=O)C4CCCC4)CC3)c2s1 | IC50 | < 1000 nM |
| CS(=O)(=O)NCCC1CCN(c2ncnc3cc(C(N)=O)oc23)CC1 | IC50 | < 1000 nM |
| CC(C)(C)C(=O)NCCC1CCN(c2nccc3cc(C(N)=O)sc23)CC1 | IC50 | < 1000 nM |
| NCCC1CCN(c2ncnc3cc(C(N)=O)sc23)CC1 [Compound 16a] | IC50 | 1000 to 10000 nM |
| COCCC1CCN(c2nc(C)nc3cc(C(N)=O)sc23)CC1 | IC50 | 1000 to 10000 nM |
| NC(=O)c1cc2ncnc(N3CCC(CCO)CC3)c2s1 | IC50 | < 1000 nM |
